Cited source for all entries: ChEMBL document CHEMBL5058564

Test system: U2OS
Test: Incucyte cell viability with U2OS; note: unitless GR value; below 1 slowed growth and below 0 cell loss
Format: toxicity, cell-based
Conditions: human, 18 h, 10 µM, compound concentration 10 uM, replicate number 2, timepoint 18 hours
Response key: Criterion met means Growth Rate >= 0.9; Criterion not met means Growth Rate < 0.9.

MOLECULE | SYSTEM NAME | ASSIGNED CLASS
C[C@@](Cc1c[nH]c2ccccc12)(NC(=O)Nc1ccc([N+](=O)[O-])cc1)C(=O)NCC1(c2ccccn2)CCCCC1 | U2OS | Criterion not met
O=C(O)CCc1ccc(NCc2cccc(Oc3ccccc3)c2)cc1 | U2OS | Criterion met
CCCCC/C=C\C/C=C\C/C=C\C/C=C\CCCC(=O)NCC(=O)O | U2OS | Criterion met
Cc1c(CC(=O)O)c2cccnc2n1Cc1ccc(S(C)(=O)=O)cc1C(F)(F)F | U2OS | Criterion met
C[C@H](CCC(=O)O)[C@H]1CC[C@H]2[C@@H]3CC[C@@H]4C[C@H](O)CC[C@]4(C)[C@H]3CC[C@]12C | U2OS | Criterion not met
OCCN1CCN(CCCN2c3ccccc3Sc3ccc(Cl)cc32)CC1 | U2OS | Criterion not met
Cc1onc(-c2ccccc2Cl)c1C(=O)N(C)c1ccc(Cl)cc1 | U2OS | Criterion not met
Cc1[nH]cnc1CN1CCc2c(c3ccccc3n2C)C1=O | U2OS | Criterion not met
COc1ccc2[nH]cc(CCNC(C)=O)c2c1 | U2OS | Criterion not met
Br.Oc1cc2c(cc1O)C(c1ccccc1)CNCC2 (centres undefined) | U2OS | Criterion met
COc1ccc(C(=O)N2CCN(C(=O)/C=C/c3ccc(Br)cc3)CC2)cc1 | U2OS | Criterion not met
C[C@H](N)COC(=O)[C@@H](CCCCN)NC(=O)Cc1c(-c2ccc3ccccc3c2)[nH]c2c1ccc1ccccc12 | U2OS | Criterion not met
O=C1NCc2ccc3c(-c4cccc(Cl)c4)c[nH]c3c21 | U2OS | Criterion not met
NC(=O)c1cccc(-c2cc(Nc3ccc(OC(F)(F)F)cc3)ncn2)c1 | U2OS | Criterion met
O=c1ccn([C@@H]2O[C@H](COP(=O)([O-])OP(=O)([O-])OP(=O)([O-])O)[C@@H](O)[C@H]2O)c(=O)[nH]1.[Na+].[Na+].[Na+] | U2OS | Criterion met
O=C1[C@H](Cc2ccc(O)cc2)N2C(=O)CCN(C(=O)NCc3ccccc3)[C@H]2CN1Cc1cccc2ccccc12 | U2OS | Criterion not met
Cc1c(Cc2ccc3ccccc3n2)c2cc(F)ccc2n1CC(=O)O | U2OS | Criterion met

====

Recorded Growth Rate for the following compounds
System: HEK-293T
Assay: Incucyte cell viability with HEK293T; note: unitless GR value; below 1 slowed growth and below 0 cell loss
Format: toxicity, cell-based
Details: human, 0 h, 10 µM, compound concentration 10 uM, replicate number 2, timepoint 0 hours

COMPOUND | Growth Rate
O=C(Nc1cc(C(F)(F)F)ccc1N1CCN(Cc2ccccn2)CC1)c1ccc(-c2ccncc2)o1 | 0.73
O=C1NC(Nc2ccccc2)=N/C1=C\c1ccc2c(c1)OCO2 | 0.94
COc1ccc2c(c1)C(C(=O)N(Cc1ccc(N(C)C)cc1)c1ccc(C(C)C)cc1)CCC2.Cl (stereo not drawn) | 0.72
CC(C)c1cc(Oc2c(Cl)cc(-n3nc(C#N)c(=O)[nH]c3=O)cc2Cl)n[nH]c1=O | 0.23
C[C@@H]1CC(=O)Nc2cccc(-c3ccc4c(c3)c(-c3cnn(C)c3)nn4C)c2N1 | 0.93
CCCCCCCCc1ccc(CC[C@](N)(CO)COP(=O)(O)O)cc1 | 0.4
Br.Cc1cccc(C2CN(C)CCc3c2cc(O)c(O)c3Cl)c1 (stereo not drawn) | 0.8
CC1=C(C)C(=O)C(C(C)(C)CC(=O)N(CCCCSC[C@H]2O[C@@H](n3cnc4c(N)ncnc43)[C@@H]3OC(C)(C)O[C@@H]32)Cc2cccc(-c3ccc(Cl)cc3)c2)=C(C)C1=O | 0.07
